targetDesc: Mitogen-activated protein kinase 14 (Homo sapiens)
Sequence (Q16539 whole entry): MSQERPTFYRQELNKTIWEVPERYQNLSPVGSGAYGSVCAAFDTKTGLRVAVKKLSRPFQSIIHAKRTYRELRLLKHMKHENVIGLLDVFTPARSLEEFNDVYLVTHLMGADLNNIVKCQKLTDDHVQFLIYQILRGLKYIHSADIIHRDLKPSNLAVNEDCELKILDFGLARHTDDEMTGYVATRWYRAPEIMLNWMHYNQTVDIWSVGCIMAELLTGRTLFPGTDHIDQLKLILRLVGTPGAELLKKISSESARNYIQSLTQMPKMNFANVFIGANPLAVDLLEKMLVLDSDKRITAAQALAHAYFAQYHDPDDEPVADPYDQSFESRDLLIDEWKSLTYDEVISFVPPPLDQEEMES
protocolText: Inhibition of p38alpha after 1 hr by mobility shift electrophoresis assay
measuredProperty: IC50

stdin: Give the reported IC50 for this compound. "COC(=O)Nc1ccc(-c2nc(N3CCOCC3)c3cnn(C4CCN(C(=O)OC)CC4)c3n2)cc1"
stdout: > 50 µM

###

targetDesc: Phosphatidylinositol 4,5-bisphosphate 3-kinase catalytic subunit alpha isoform (Homo sapiens, UniProt P42336)
Sequence (P42336 whole entry, canonical isoform): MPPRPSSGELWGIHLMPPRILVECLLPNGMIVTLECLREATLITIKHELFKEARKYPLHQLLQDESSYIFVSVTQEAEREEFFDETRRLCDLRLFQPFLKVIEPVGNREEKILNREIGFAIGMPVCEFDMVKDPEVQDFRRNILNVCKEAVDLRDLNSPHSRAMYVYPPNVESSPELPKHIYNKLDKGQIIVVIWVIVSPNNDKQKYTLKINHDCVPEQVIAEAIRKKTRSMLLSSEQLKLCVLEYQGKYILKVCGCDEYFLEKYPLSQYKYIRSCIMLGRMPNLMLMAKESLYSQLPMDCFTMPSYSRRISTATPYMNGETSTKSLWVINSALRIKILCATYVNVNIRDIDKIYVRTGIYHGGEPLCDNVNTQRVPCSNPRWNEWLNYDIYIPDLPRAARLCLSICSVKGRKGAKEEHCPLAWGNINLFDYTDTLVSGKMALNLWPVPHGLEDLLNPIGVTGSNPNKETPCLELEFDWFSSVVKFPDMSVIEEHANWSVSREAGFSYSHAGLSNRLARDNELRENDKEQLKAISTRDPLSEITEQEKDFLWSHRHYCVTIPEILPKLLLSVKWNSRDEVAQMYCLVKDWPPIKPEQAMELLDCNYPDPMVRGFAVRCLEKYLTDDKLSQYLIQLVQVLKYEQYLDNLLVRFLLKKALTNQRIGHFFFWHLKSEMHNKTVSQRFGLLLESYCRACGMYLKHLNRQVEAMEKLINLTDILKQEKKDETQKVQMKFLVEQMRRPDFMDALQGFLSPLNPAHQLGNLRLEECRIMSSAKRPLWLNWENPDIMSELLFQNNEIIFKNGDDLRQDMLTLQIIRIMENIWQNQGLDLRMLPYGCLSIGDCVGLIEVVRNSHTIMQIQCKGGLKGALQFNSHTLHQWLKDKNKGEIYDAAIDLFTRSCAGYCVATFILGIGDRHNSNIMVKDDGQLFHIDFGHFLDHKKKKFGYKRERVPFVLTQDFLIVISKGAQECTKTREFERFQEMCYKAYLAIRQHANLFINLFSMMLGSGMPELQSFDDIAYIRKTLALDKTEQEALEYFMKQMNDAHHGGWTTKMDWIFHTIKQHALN
protocolText: Inhibition of PI3Kalpha expressed in Escherichia coli by microtiter plate-based fluorescence polarization assay
Recorded pIC50, one value per entry.
The value called pIC50 is obtained by taking minus log10 of the concentration in mol/L.

These solved cases illustrate the format of a correct answer.
molSmiles: COC(=O)Nc1ccc(-c2nc(N3CCOCC3)c3cnn(C4CCN(C(=O)OC)CC4)c3n2)cc1
quantitativeReadout: 5.99
--
molSmiles: COC(=O)N1CCC(n2ncc3c(N4CCOCC4)nc(-c4ccc(NC(=O)Nc5ccncc5)cc4)nc32)CC1
quantitativeReadout: 7.74
--
molSmiles: COC(=O)N1CCC(n2ncc3c(N4CCOCC4)nc(-c4ccc(NC(=O)Nc5ccc(CO)cc5)cc4)nc32)CC1
quantitativeReadout: 8.22
--
molSmiles: COC(=O)N1CCC(n2ncc3c(N4CCOCC4)nc(-c4ccc(NC(=O)Nc5cccnc5)cc4)nc32)CC1
quantitativeReadout: 7.46
--
molSmiles: CCOC(=O)Nc1ccc(-c2nc(N3CCOCC3)c3cnn(C4CCN(Cc5ccccc5)CC4)c3n2)cc1
quantitativeReadout: 6.20

Now consider the entry below.
stdin: # return recorded pIC50 for input "O=C(Nc1ccncc1)Nc1ccc(-c2nc(N3CCOCC3)c3cnn(C4CCN(C(=O)c5cccnc5)CC4)c3n2)cc1"
stdout: 6.26
